Every entry's value here was drawn from patent US7495027B2.

- System: Streptococci
- assay_info: Minimum inhibitory concentration, microdilution broth method, streptococci
- Format: cell-based
- condition_label: S. pneumo GC 1894; Mueller-Hinton broth with 5% horse blood, 18-22 hours at 35° C.
Rule: measured MIC below 0.5 µg/mL gets rule met; anything equal to or greater than 0.5 µg/mL gets rule not met.

[[record]]
compound = "Cc1ccccc1-c1ccc(/C=C2\\OC(=O)C(c3cc(Cl)cc(Cl)c3)=C2O)cc1C [Example 29]"
label_value = "rule met"

[[record]]
compound = "O=C1O/C(=C\\c2cc(C(F)(F)F)ccc2Cl)C(O)=C1c1ccc(-c2ccccc2)c(F)c1 [Example 126]"
label_value = "rule met"

[[record]]
compound = "O=C1O/C(=C\\c2ccc(-c3ccccc3)cc2)C(O)=C1c1csc2ccccc12 [Example 143]"
label_value = "rule not met"

[[record]]
compound = "O=C1O/C(=C\\c2ccc(-c3ccccc3C(F)(F)F)cc2)C(O)=C1c1ccccc1C(F)(F)F [Example 61]"
label_value = "rule not met"

[[record]]
compound = "O=C1O/C(=C\\c2cccc3ccccc23)C(O)=C1c1ccc2ccccc2c1 [Example 44]"
label_value = "rule not met"

[[record]]
compound = "CC(C)(C)c1ccc(-c2ccc(C3=C(O)/C(=C/c4cccc(C(F)(F)F)c4Cl)OC3=O)cc2)cc1 [Example 116]"
label_value = "rule met"

[[record]]
compound = "O=C1O/C(=C\\c2ccc(-c3ccccc3)cc2)C(O)=C1c1ccc(Cl)c(Cl)c1 [Example 66]"
label_value = "rule met"

[[record]]
compound = "CC(=O)c1ccccc1-c1ccc(/C=C2\\OC(=O)C(c3cc(Cl)cc(Cl)c3)=C2O)cc1C [Example 40]"
label_value = "rule met"

[[record]]
compound = "CCCc1ccc(-c2ccc(C3=C(O)/C(=C/c4cccc(C(F)(F)F)c4Cl)OC3=O)cc2)cc1 [Example 115]"
label_value = "rule met"

[[record]]
compound = "O=C1O/C(=C\\C2CCCCC2)C(O)=C1c1ccc(-c2ccccc2)cc1 [Example 100]"
label_value = "rule not met"


---

- System: Streptococci
- assay_info: Minimum inhibitory concentration, microdilution broth method, streptococci
- Assay type: cell-based
- condition_label: S. pneumo GC 1894; Mueller-Hinton broth with 5% horse blood, 18-22 hours at 35° C.
The following compounds are listed with their measured MIC values.
readout_name: MIC (µg/mL)

[[record]]
smiles_record = "O=C1O/C(=C\\c2cccc3ccccc23)C(O)=C1c1cccc2ccccc12"
readout_name = "MIC"
measurement_qualifier = "="
experimental_value = 16

[[record]]
smiles_record = "O=C1O/C(=C\\c2ccc(N3CCOCC3)c3ccccc23)C(O)=C1c1cccc(Cl)c1"
readout_name = "MIC"
measurement_qualifier = "="
experimental_value = 8

[[record]]
smiles_record = "O=C1O/C(=C\\C2CCCCC2)C(O)=C1c1cccc(C(F)(F)F)c1"
readout_name = "MIC"
measurement_qualifier = "<"
experimental_value = 0.125

[[record]]
smiles_record = "O=C1O/C(=C\\c2ccc(C(F)(F)F)cc2)C(O)=C1c1ccc(-c2ccccc2)cc1"
readout_name = "MIC"
measurement_qualifier = "<"
experimental_value = 0.125

[[record]]
smiles_record = "O=C1O/C(=C\\c2ccc(-c3ccccc3)cc2)C(O)=C1c1ccc(Cl)cc1Cl"
readout_name = "MIC"
measurement_qualifier = "<"
experimental_value = 0.125

[[record]]
smiles_record = "O=C1O/C(=C\\c2ccc(-c3ccccc3)cc2)C(O)=C1c1ccc(Cl)cc1"
readout_name = "MIC"
measurement_qualifier = "="
experimental_value = 0.5

[[record]]
smiles_record = "O=C1O/C(=C\\c2ccc(N3CCOCC3)c3ccccc23)C(O)=C1c1cc(Cl)cc(Cl)c1"
readout_name = "MIC"
measurement_qualifier = "="
experimental_value = 1

[[record]]
smiles_record = "O=C1O/C(=C\\c2cc(C(F)(F)F)ccc2F)C(O)=C1c1ccc(-c2ccccc2)c(F)c1"
readout_name = "MIC"
measurement_qualifier = "="
experimental_value = 0.5


---

Measured MIC E. faecalis GC 2242, listed per entry.
- System: enterococci
- assay_info: Minimum inhibitory concentration, microdilution broth method, enterococci
- Assay type: cell-based
- condition_label: E. faecalis GC 2242; Mueller-Hinton broth, 18-22 hours at 35° C.
readout_name: MIC E. faecalis GC 2242

[[record]]
molecule = "O=C1OC(=Cc2cccc3ccccc23)C(O)=C1c1ccc(C=NO)cc1 (mixture of isomers)"
experimental_value = ">128 µg/mL"

[[record]]
molecule = "O=C1O/C(=C\\c2ccc(-c3ccccc3)cc2)C(O)=C1c1cc(Cl)cc(Cl)c1"
experimental_value = "1 µg/mL"

[[record]]
molecule = "CCOC(=O)c1cccc(C2=C(O)C(=Cc3cccc4ccccc34)OC2=O)c1"
experimental_value = ">128 µg/mL"

[[record]]
molecule = "Cc1cc(/C=C2\\OC(=O)C(c3cc(Cl)cc(Cl)c3)=C2O)ccc1-c1ccccc1OS(C)(=O)=O"
experimental_value = "4 µg/mL"

[[record]]
molecule = "O=C1O/C(=C\\c2cc(C(F)(F)F)ccc2Cl)C(O)=C1c1ccc(N2CCOCC2)c(F)c1"
experimental_value = ">128 µg/mL"

[[record]]
molecule = "COc1ccc(C=C2OC(=O)C(c3cccc(Cl)c3)=C2O)c2ccccc12"
experimental_value = "8 µg/mL"

[[record]]
molecule = "Cc1ccc(C=C2OC(=O)C(c3ccc(Cl)cc3)=C2O)s1 (mixture of isomers) [Example 13]"
experimental_value = ">128 µg/mL"

[[record]]
molecule = "O=C1O/C(=C\\c2ccc(-c3cccc(C(F)(F)F)c3)cc2)C(O)=C1c1cccc(C(F)(F)F)c1"
experimental_value = "1 µg/mL"

[[record]]
molecule = "O=C1O/C(=C\\c2cc(F)cc(C(F)(F)F)c2)C(O)=C1c1cccc(-c2ccccc2)c1"
experimental_value = "2 µg/mL"

[[record]]
molecule = "Cc1cc(C=C2OC(=O)C(c3cc(Cl)cc(Cl)c3)=C2O)ccc1-c1ccccc1Cl"
experimental_value = "1 µg/mL"

[[record]]
molecule = "O=C1O/C(=C\\c2cccc3ccccc23)C(O)=C1c1cccc(C=NO)c1"
experimental_value = ">128 µg/mL"

[[record]]
molecule = "O=C1OC(=Cc2ccc(-c3ccccc3)cc2)C(O)=C1c1cccc(C(F)(F)F)c1 (mixture of isomers)"
experimental_value = "1 µg/mL"

[[record]]
molecule = "O=C1O/C(=C\\c2ccc(N3CCOCC3)c(F)c2)C(O)=C1c1cc(Cl)cc(Cl)c1"
experimental_value = "64 µg/mL"

[[record]]
molecule = "Cc1ccc(C=C2OC(=O)C(c3ccc(Cl)cc3)=C2O)s1 [Example 14]"
experimental_value = "64 µg/mL"

[[record]]
molecule = "CN(C)c1ccc(C=C2OC(=O)C(c3cc(Cl)cc(Cl)c3)=C2O)c2ccccc12"
experimental_value = "4 µg/mL"

[[record]]
molecule = "O=C1OC(=CC2CCCCC2)C(O)=C1c1cccc(C(F)(F)F)c1"
experimental_value = "64 µg/mL"

[[record]]
molecule = "N#Cc1ccc(C2=C(O)/C(=C/c3ccc(-c4ccc(C#N)cc4)cc3)OC2=O)cc1"
experimental_value = "32 µg/mL"


---

- tested_system: S. aureus Enopyruvyl-UPD-N-acetylglucosamine reductase, Mur B (Staphylococcus aureus, UniProt P61431)
- Sequence (P61431 whole entry): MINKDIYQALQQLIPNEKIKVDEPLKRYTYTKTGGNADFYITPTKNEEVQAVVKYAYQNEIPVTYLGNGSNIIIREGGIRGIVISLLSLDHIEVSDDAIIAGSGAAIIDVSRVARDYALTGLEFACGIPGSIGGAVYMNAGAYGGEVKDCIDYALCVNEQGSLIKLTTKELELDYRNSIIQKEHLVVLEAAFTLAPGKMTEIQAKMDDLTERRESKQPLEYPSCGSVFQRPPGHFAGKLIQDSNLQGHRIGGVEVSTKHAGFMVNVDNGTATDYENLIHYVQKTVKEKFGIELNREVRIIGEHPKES
- assay_info: biochemical
- condition_label: (S) S. aureus enzyme; read-out: MurB IC50 (converted)
Lab note: anything with IC50 below 6 µM is marked y; values at 6 µM or higher are marked n.

[[record]]
smiles_record = "COc1ccccc1-c1ccc(/C=C2\\OC(=O)C(c3cc(Cl)cc(Cl)c3)=C2O)cc1C"
label_value = "y"

[[record]]
smiles_record = "O=C1O/C(=C\\c2ccccc2-c2ccc(Cl)cc2)C(O)=C1c1ccc(Cl)cc1"
label_value = "n"

[[record]]
smiles_record = "CN(C)c1ccc(/C=C2\\OC(=O)C(c3ccc(C(F)(F)F)cc3)=C2O)c2ccccc12"
label_value = "n"

[[record]]
smiles_record = "O=C1O/C(=C\\c2cccc3ccccc23)C(O)=C1c1ccc(C(F)(F)F)cc1"
label_value = "n"

[[record]]
smiles_record = "O=C1O/C(=C\\c2cccc(-c3ccc(Cl)c(Cl)c3)c2)C(O)=C1c1ccc(Cl)c(Cl)c1"
label_value = "n"

[[record]]
smiles_record = "COc1ccccc1-c1ccc(/C=C2\\OC(=O)C(c3cccc(Cl)c3)=C2O)cc1C"
label_value = "n"

[[record]]
smiles_record = "COc1ccccc1-c1ccc(/C=C2\\OC(=O)C(c3ccc(Cl)c(Cl)c3)=C2O)cc1OC"
label_value = "n"

[[record]]
smiles_record = "O=C1O/C(=C\\c2ccc(N3CCOCC3)c3ccccc23)C(O)=C1c1cc(Cl)cc(Cl)c1"
label_value = "n"

[[record]]
smiles_record = "O=C1O/C(=C\\c2ccccc2-c2ccc(Cl)c(Cl)c2)C(O)=C1c1ccc(Cl)c(Cl)c1"
label_value = "y"

[[record]]
smiles_record = "COc1ccc(/C=C2\\OC(=O)C(c3cc(Cl)cc(Cl)c3)=C2O)c2ccccc12"
label_value = "n"

[[record]]
smiles_record = "CN(C)c1ccc(/C=C2\\OC(=O)C(c3ccc(Cl)cc3)=C2O)c2ccccc12"
label_value = "n"

[[record]]
smiles_record = "O=C1O/C(=C\\c2cccc(-c3cccc(Cl)c3)c2)C(O)=C1c1cccc(Cl)c1"
label_value = "y"

[[record]]
smiles_record = "COc1cc(/C=C2\\OC(=O)C(c3cccc(Cl)c3)=C2O)ccc1-c1ccccc1Cl"
label_value = "n"

[[record]]
smiles_record = "CN(C)c1ccc(/C=C2\\OC(=O)C(c3cc(Cl)cc(Cl)c3)=C2O)c2ccccc12"
label_value = "y"

[[record]]
smiles_record = "COc1cc(/C=C2\\OC(=O)C(c3cc(Cl)cc(Cl)c3)=C2O)ccc1-c1ccccc1C(F)(F)F"
label_value = "y"

[[record]]
smiles_record = "O=C1O/C(=C\\c2cccc(-c3cc(Cl)cc(Cl)c3)c2)C(O)=C1c1cc(Cl)cc(Cl)c1"
label_value = "y"

[[record]]
smiles_record = "Cc1cc(/C=C2\\OC(=O)C(c3cccc(Cl)c3)=C2O)ccc1-c1ccccc1C(F)(F)F"
label_value = "y"

[[record]]
smiles_record = "COc1cc(/C=C2\\OC(=O)C(c3cccc(Cl)c3)=C2O)ccc1-c1ccccc1C(F)(F)F"
label_value = "n"

[[record]]
smiles_record = "COc1ccc(C2=C(O)/C(=C/c3cccc4ccccc34)OC2=O)cc1"
label_value = "n"

[[record]]
smiles_record = "COc1cc(/C=C2\\OC(=O)C(c3cccc(Cl)c3)=C2O)ccc1-c1ccccc1C"
label_value = "n"

[[record]]
smiles_record = "O=C1O/C(=C\\c2ccccc2-c2cccc(Cl)c2)C(O)=C1c1cccc(Cl)c1"
label_value = "n"

[[record]]
smiles_record = "O=C1O/C(=C\\c2ccc(Cl)cc2)C(O)=C1c1ccc(-c2ccccc2)c(F)c1"
label_value = "n"

